Tested on: MS2 coat protein
Experiment: apparent KD of MS2 coat protein; designed switch direction (-1 OFF switch, 1 ON switch): 1; higher = weaker reporter binding
Details: Eterna round: R95; input ligand: microRNA oligo, concentration not stated
REPORTED METRIC: apparent KD of MS2 coat protein (µM)
The response must be a number in µM with no trailing unit.

QUERY: For the record UCAAGGUUUUUGCUCGUUUUAUGUGUUGAACAUGAGGAUCACCCAUGUAUUGUACGAUCCAGUUAGAUGGUGGUUUG [JR_SHM208A_Sub042] (puzzle: Sensor for hsa-mir-208a) , what value of apparent KD of MS2 coat protein is listed for MS2 coat protein?
RESULT: 0.0781

QUERY: For the record UAGAGAGGAAGCGAGGAUAUCGUGUGAGGAACAUGAGGAUCACCCAUGUGUGAUGUUGAGAGAGACGAGAAGGCGCAGGAAAUUA [JR_SS2_Sub082] (puzzle: Same State 2) , what value of apparent KD of MS2 coat protein is listed for MS2 coat protein?
RESULT: 0.116

QUERY: For the record AGUCCAGCCUGAGCUGGACAAAAGCAUGUACAUGAGGAUCACCCAUGUUAUGUACAAGCUUUUUGCUCGUCUUAAAA [Zipper 46 - 15] (puzzle: Sensor for hsa-mir-208a) , what value of apparent KD of MS2 coat protein is listed for MS2 coat protein?
RESULT: 0.013

QUERY: For the record AACAAUCUAUUUGAGGAUAUCAUGAAAUAAACAUGAGGAUCACCCAUGUGCAGGAAAACUGCAUAUGAGAAGGCAGAUAGAUUGA [salish99_ss2_r3_025] (puzzle: Same State 2) , what value of apparent KD of MS2 coat protein is listed for MS2 coat protein?
RESULT: 0.0302

###

Tested on: K4 kissing-loop RNA reporter
Test: apparent KD of K4 kissing-loop reporter; higher = weaker reporter binding
Conditions: Eterna round: R107; input ligand: none
REPORTED METRIC: apparent KD of K4 kissing-loop reporter
Your answer should be a number followed by the unit of measure.

Examples with their reported apparent KD of K4 kissing-loop reporter follow.
• AAACAUCACUACUUCUUCGUCCUAGAAGACUAGGAUAUCAGGAAACUGAGAAGGAGUCUCUGCAGUGAUGUUGCAGCUAGGACGA [[K]'-[F2]'-[F1]'-[F1]-[F2]-[K1]-[K2]-[F]''_Design2] = 194 nM
• CUAGGCAACACAGGAUAUGUCCGAGUGAUGUUCGAGCCUUUCCAUUGACGAAAUUAAUGGUGGGUGACAGAAGGGUGAGUGCUGA [Xezaqu] = 620 nM

QUERY: Request the reported apparent KD of K4 kissing-loop reporter associated with AUUAAUAACUGAGGAUAUCGUUUUACUGUAGUGAUGUUACAGAAAAUUCACAUUAUAAUUUCUAUUCGAGAAGGCAGAAUAAUUA [JR_ExcFMNB_Sub014]
RESULT: 65.2 nM

###

System: MS2 coat protein
Test: apparent KD of MS2 coat protein, switch OFF state (with FMN for OFF switches, without FMN for ON switches); designed switch direction (-1 OFF switch, 1 ON switch): 1; higher = weaker reporter binding
Settings: FMN input: 0 or 200 uM; Eterna round: R93 (includes R88 designs)
Classification field: true (1) = apparent KD of MS2 coat protein at or over 40 nM; false (0) = apparent KD of MS2 coat protein under 40 nM.

Past entries and their recorded results:
• AAGAAACAUGAGGAUCACCCAUGUGAAAUAAACACAGGAUAUGCGAAAAGAAACAAAGAAGCAGAAGGGUGAAGAA [Mat - Same State 1 - Tesla mod - 57] = true (1)
• CAUCAACAUGAGGAUCACCCAUGUCAGUGAUGUCAAGGAUAUGGGAGACAUAAAAUUCUUCUAGAAGGUGAAAGAU [Orlaanar] = true (1)
• AAAAAAAAAGUAGAGGAUAUCCAAAUGGCUACAUGAGGAUCACCCAUGUGAAGAAAAGCACAUGAGGAGAAGGCUACAAAAAAAAA [Blender bender] = false (0)
• AUGGUCAAGUGUGAGGAUAUCCAGGCUCCCACAUGAGGAUCACCCAUGUUUAUUAGAGCGUAAAGGGAGAAGGUACGAACGCCAU [Esbibiti] = false (0)
• CGAAAGGAGAGAGAGGAUAUCCAAAGGAAAACAUGAGGAUCACCCAUGUAGAAGGUAGGAGAUUGGGAGAAGGCUCAAGCUAAAC [salish99-ss2-158] = false (0)

Shift focus to the following entry.
QUERY: Threshold query (apparent KD of MS2 coat protein >= 40 nM) on AUAUGAUCAUGUGAGGAUAUCCAUAAUAAAACAUGAGGAUCACCCAUGUAUAGAUAAUAAUAAUGGGAGAAGGCACAUGAUCAAU [SS 2 M41]
RESULT: false (0)

###

System: K4 kissing-loop RNA reporter;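 note: bound reporter read as fluorescence of individual clusters on recovered sequencing chips by microscopy, with normalized cluster intensities fitted with a binding model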
Assay: apparent KD of K4 kissing-loop reporter; higher = weaker reporter binding
Details: Eterna round: R107; input ligand: none
Classification field: Yes = apparent KD of K4 kissing-loop reporter at or over 100 nM; No = apparent KD of K4 kissing-loop reporter under 100 nM.

Past entries and their recorded results:
- GAUAUAGAGGCGGCCGCCACUAGUGAUGUUAGUGAUGUUAGAUAGAGAAUAGAACAGAGGUGGGAUAGGACCGGGCCAGAUAGAG [whbob_SS_Tryp_B_w34]: No
- AUCAGCCUCAGAAGGAGCGUGAGUUUUAAGAGGCUGGAGUGAUGUUCCAGACAUAACGACUCACAGGUAGGUCGCUGAGACUAGU [Arg B SS t1]: Yes
- ACUACGAAGACGGCCGCCACUGAUAUUCGUAGAUCCAUCAUUACAUGAGUGAUGUUCAUGUAUAUCAGGACCGGGUCAAGAUGGU [KL-XTryp-B17 #analogue]: Yes
- GGCAGUGAUGUUGCCAGUGGCAGAUUGGAAGGAGCGUGGUGAGACACAGGUAGGUCGCUAAUUGAAAUUGCUGUCACUAAAAUGC [whbob_Ex_Arginine_A_2t130]: Yes
- GACGGGCAGUGAUGUUGCCGGUCUCUUGGACGAGGACCGGUACGGCCGCCACUCGAUCUGAUGCGGGAAUUGCAUCUUUUAAUAA [Raorbirabe]: Yes
- ACAGGAUCGAAAGAUCCUGAGCAGUCAAAACGAGGACCGGUACGGCCGCCACUCGAAUAAGAGAGUGAUGUUCUCGACUGCAAAA [Omei inspired 10 - Reversed #K4Late]: Yes

QUERY: Threshold query (apparent KD of K4 kissing-loop reporter >= 100 nM) on AAUAAGGUCGCCGAUACCAGCGCAGGCAGAGCAAAGCUCUGCCAGGUAGUGAUGUUACCGCGCCCUUGGCAGCGGUGGCACGACC [Omei KL Theo B SS C v2]
RESULT: Yes

QUERY: Threshold query (apparent KD of K4 kissing-loop reporter >= 100 nM) on CUUUGAACAUGAGUGAUGUUCAUGUCCGAAGGAGCGUGCGAAAGCACAGGUAGGUCGCGGACGUGAGUGAUGUUCAUGUGAGCGA [KL-XArg-A11 #analogue]
RESULT: Yes

QUERY: Threshold query (apparent KD of K4 kissing-loop reporter >= 100 nM) on UACUAGUGAAACUAGUAGGUGCUAGGUGAAGGAGCGAUCGAAAGAUCAGGUAGGUCGCACCUUCCUGAGUGAUGUUCAGGUAAUA [KL-SSArg-A3]
RESULT: No

QUERY: Threshold query (apparent KD of K4 kissing-loop reporter >= 100 nM) on ACCCGUAGGAUACGGAGGUGUAAAUGGGUAUAGGAUAUCUAGAAAUAGAGAAGGAUACCAGUGAUGUUGGUUCCGUAUAUCUUAA
RESULT: Yes

QUERY: Threshold query (apparent KD of K4 kissing-loop reporter >= 100 nM) on ACUGGGUUGACGAAAGUCAACAAAAGAGAAGGAGCGCACGAAAGUGCAGGUAGGUCGCUCAUCCAGUGAUGUUGGAUCAUCCAGA [#SwitchBubble 17 #K4Late]
RESULT: Yes

###

# apparent KD of MS2 coat protein per record follows
Test system: MS2 coat protein
Assay: apparent KD of MS2 coat protein, switch OFF state (with FMN for OFF switches, without FMN for ON switches); designed switch direction (-1 OFF switch, 1 ON switch): -1; higher = weaker reporter binding
Details: FMN input: 0 or 200 uM; Eterna round: R93 (includes R88 designs)
The response must be a number in nM with no trailing unit.

* CUCUUGUCAGGAUAUCUAAGAAAAGAAGAGAAAGAAAAGAAAGAGAAGGGACAUGAGGAUCACCCAUGUAAGAA [EteRNA is fun!] | 32.4
* AACAGUACAGGAUAUACAUGAGGAUCACCCAUGUGAGAAUUAAAAGGCGUACCUAAAAGUAGAAGGGUACUGGA [JL Maslow Revisted mod 18] | 73.2
* AAAAAUGCAGGAUAUACGAACAUGUCAAAAGACGUGAAGGGACAUGAGGAUCACCCAUGUAGAAGGGUAAAGAA [JL Neck Breaker 14] | 46
* AUAAUGCGAGGAUAUACAUGAGGAUCACCCAUGUAAAUCAAUAGGAGAGCCACAUUAAGUAGAAGGUGCAUUAA [JR_Exc003_Sub502] | 49.1
* AAGAAACAUGAGGAUCACCCAUGUGAGGAUAUGUAAAAGAAAAGAAAAGAAAGAAGAAACAGAAGGCACAAAGG [Neferkare VII] | 48

Please examine the following record next.
QUERY: Request the reported apparent KD of MS2 coat protein associated with AACUGACAUGAGGAUCACCCAUGUCAGGAUAUGCUUCAUAAAAAAAAAAAAAAAUGAUGCAGAAGGGAUAUGGG [Design 33 :P Sub-opt 9]
RESULT: 34.3
